B1: Aryl-hydrocarbon-interacting protein-like 1, Q9NZN9 (parent)
chain: MDAALLLNVEGVKKTILHGGTGELPNFITGSRVIFHFRTMKCDEERTVIDDSRQVGQPMHIIIGNMFKLEVWEILLTSMRVHEVAEFWCDTIHTGVYPILSRSLRQMAQGKDPTEWHVHTCGLANMFAYHTLGYEDLDELQKEPQPLVFVIELLQVDAPSDYQRETWNLSNHEKMKAVPVLHGEGNRLFKLGRYEEASSKYQEAIICLRNLQTKEKPWEVQWLKLEKMINTLILNYCQCLLKKEEYYEVLEHTSDILRHHPGIVKAYYVRARAHAEVWNEAEAKADLQKVLELEPSMQKAVRRELRLLENRMAEKQEEERLRCRNMLSQGATQPPAEPPTEPPAQSSTEPPAEPPTAPSAELSAGPPAEPATEPPPSPGHSLQH

Variants of: B1
Details: Homo sapiens; pH 7.9; Thermal; CD; sodium Phosphate 5 mM; transition: 2; whole UniProt chain shown
The reader will find reported Tm values listed item by item below.

# mutationAnnotation, unitOfMeasurement, Tm
rows = [
    ("G262S", "°C", 40.1),
    ("C239R", "°C", 46.7),
    ("T114I", "°C", 34.8),
    ("I206N", "°C", 41.4),
    ("W278X", "°C", 33.2),
    ("R302L", "°C", 43.2),
    ("A197P", "°C", 40.5),
]
